Assay: Acute oral LD50
Format: in vivo, mice (male, 25 gm.)
Details: mouse, in vivo; Table II; male mice, oral in sesame oil, highest dose 5000 mg/kg, observed 14 days, Finney's method; read-out: LD50 (95% Confidence Interval)
METRIC: LD50 at 336 h (mg/kg)
Your answer should be a plain number; it is taken to be in mg/kg.

| COMPOUND | RESULT_UNITS | LD50 at 336 h |
| --- | --- | --- |
| CCO[Si](C)(C)c1ccccc1 [drawing 14] | mg/kg | 5380 |

(Q) // LD50 at 336 h lookup, key: CCO[Si](OCC)(OCC)c1ccccc1 [.phi.Si(OCH2 CH3)3]
(A) 5140

* * *

System: mice
Test: Electroshock test (Maximal Electroshock Test, M.E.S.), inhibition of tonic extension of hind limbs
Assay type: in vivo, mice (adult male, Carworth CF 1 strain)
Conditions: Mus musculus; Table I; oral, sesame oil; 2 hours after dosing; n.p. = no protection observed; read-out: MES ED50
METRIC: ED50 (mg/kg)
Your answer should be a plain number; it is taken to be in mg/kg.

The following compounds have reported results that may help.
| COMPOUND | REPORTED |
| --- | --- |
| O[Si](c1ccccc1)(c1ccccc1)c1ccccc1 [drawing 9; X=OH] | 105 |
| CCO[Si](CC)(OCC)c1ccccc1 [drawing 10; R1=C2 H5; X=OC2 H5] | 150 |
| CCO[Si](C)(C)c1ccccc1 [drawing 8; R1=CH3; R2=CH3; X=OC2 H5] | 200 |

(Q) // ED50 lookup, key: CC[Si](O)(O)c1ccccc1 [drawing 10; R1=C2 H5; X=OH]
(A) 120

(Q) // ED50 lookup, key: "CO[Si](C)(OC)c1ccccc1"
(A) 56

(Q) // ED50 lookup, key: C[Si](C)(O)c1ccccc1 [drawing 8; R1=CH3; R2=CH3; X=OH]
(A) 118

(Q) // ED50 lookup, key: CCO[Si](C)(OCC)c1ccccc1 [drawing 10; R1=CH3; X=OC2 H5]
(A) 180

(Q) // ED50 lookup, key: CC(=O)O[Si](C)(OC(C)=O)c1ccccc1 [drawing 10; R1=CH3; X=drawing 11]
(A) 200

(Q) // ED50 lookup, key: CO[Si](OC)(OC)c1ccccc1 [drawing 12; X=OCH3]
(A) 560

(Q) // ED50 lookup, key: "C[Si](O)(c1ccccc1)c1ccccc1"
(A) 52

* * *

Tested on: mice
Experiment: Electroshock test (Maximal Electroshock Test, M.E.S.), inhibition of tonic extension of hind limbs
Assay type: in vivo, mice (adult male, Carworth CF 1 strain)
Details: Mus musculus; Table I; oral, sesame oil; 2 hours after dosing; n.p. = no protection observed; read-out: MES ED50
METRIC: ED50 (mg/kg)
Your answer should be a plain number; it is taken to be in mg/kg.

| COMPOUND | RESULT_UNITS | REPORTED |
| --- | --- | --- |
| C[Si](O)(O)c1ccccc1 [drawing 10; R1=CH3; X=OH, phenylmethylsilanediol] | mg/kg | 80 |
| CCO[Si](OCC)(OCC)c1ccccc1 | mg/kg | 170 |
| CC(C)O[Si](C)(OC(C)C)c1ccccc1 [drawing 10; R1=CH3; X=OCH(CH3)2] | mg/kg | 94 |

Now, please, on to the next compound.
(Q) // ED50 lookup, key: C=C[Si](OCC)(OCC)c1ccccc1 [drawing 10; R1=CHCH2; X=OC2 H5]
(A) 170
